assay.procedure: Pharmacokinetics of decitabine in IVAP rabbit model
Assay type: in vivo, rabbits
experimental.setup: rabbit, portal vein plasma, 2.5 mg/kg, LSI 2.5 mg/kg; read-out: Mean AUC0-inf in Portal Vein
metric: AUC(0-inf) (ng·h/mL)
Please state the figure in ng·h/mL; there is no need to write the unit.

Any idea what AUC(0-inf) was measured for Nc1ncn([C@H]2C[C@H](O)[C@@H](CO)O2)c(=O)n1 [decitabine, 5-aza-2′-deoxycytidine] ?
586

###

assay.procedure: Pharmacokinetics of decitabine in IVAP rabbit model
Type: in vivo, rabbits
experimental.setup: IV 0.75 mg/kg, 180 min
metric: concentration PV, individual (ng/mL)
Please state the figure in ng/mL; there is no need to write the unit.

Any idea what concentration PV, individual was measured for "Nc1ncn([C@H]2C[C@H](O)[C@@H](CO)O2)c(=O)n1" ?
13.9
